Data origin: paper PMC12169608

measurement.target: mouse cathepsin B (mCTSB) (Mus musculus, UniProt P10605)
Sequence (P10605 80-339): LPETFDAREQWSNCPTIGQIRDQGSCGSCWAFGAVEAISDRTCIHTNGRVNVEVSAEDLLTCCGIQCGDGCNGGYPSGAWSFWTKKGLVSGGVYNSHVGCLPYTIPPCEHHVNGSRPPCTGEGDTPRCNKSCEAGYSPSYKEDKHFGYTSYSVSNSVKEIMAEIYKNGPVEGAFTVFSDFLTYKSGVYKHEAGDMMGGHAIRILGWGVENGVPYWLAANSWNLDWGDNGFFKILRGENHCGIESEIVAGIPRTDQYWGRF
assay.method.text: mCTSB biochemical assay
details: read-out: pIC50 (mouse CTSB) (converted)
observation.type: IC50 (nM)

[[record]]
entry_smiles = "CC(C)(O)c1c(F)c(F)c(OCC(=O)[C@H](C[C@@H]2CCNC2=O)NC(=O)[C@@H]2[C@@H]3[C@H](CN2C(=O)[C@@H](NC(=O)C(F)(F)F)C(C)(C)C)C3(C)C)c(F)c1F"
op = "="
obs_value = 5010

[[record]]
entry_smiles = "O=C(N[C@@H](Cc1c[nH]c2ccccc12)C(=O)N[C@@H](C[C@@H]1CCNC1=O)C(=O)COc1c(F)c(F)c(CO)c(F)c1F)c1cc2ccccc2[nH]1"
op = "="
obs_value = 12.3

[[record]]
entry_smiles = "CC(C)(C)[C@H](NC(=O)C(F)(F)F)C(=O)N1C[C@H]2[C@@H]([C@H]1C(=O)N[C@@H](C[C@@H]1CCNC1=O)C(=O)COc1c(F)c(F)c(CO)c(F)c1F)C2(C)C"
op = "="
obs_value = 1860

[[record]]
entry_smiles = "COc1cccc2[nH]c(C(=O)N[C@@H](Cc3cccc(F)c3)C(=O)N[C@@H](CCn3cn[nH]c3=O)C(=O)COc3c(F)c(F)c(C(C)(C)O)c(F)c3F)cc12"
op = "<"
obs_value = 6.92

